- TARGET UNDER TEST: norepinephrine transporter (NET) (Rattus norvegicus)
- ASSAY METHOD TEXT: Norepinephrine reuptake ([^3H]norepinephrine uptake) inhibition in rat brain synaptosomes
- TEST PARAMETERS: read-out: NE Uptake EC50 (nM ± SD); rat brain synaptosomes; 10 nM [^3H]norepinephrine; 10 min, 37° C.
In this section, each of the compounds is paired with its reported IC50.

{"columns": ["GIVEN SMILES", "TARGET UNDER TEST", "UNIT LABEL", "IC50"],
 "data": [
  ["Cc1cc2nccn2cc1-c1nc(NCC(c2ccccc2)c2ccccc2)c2ccccc2n1", "norepinephrine transporter (NET) (Rattus norvegicus)", "nM", 21],
  ["c1ccc(C(Nc2nc(-c3ccc4[nH]ccc4c3)nc3ccccc23)c2ccccc2)cc1", "norepinephrine transporter (NET) (Rattus norvegicus)", "nM", 5850],
  ["OC(CNc1nc(-c2ccc3nccn3c2)nc2ccccc12)(c1ccccc1)c1ccccc1", "norepinephrine transporter (NET) (Rattus norvegicus)", "nM", 98],
  ["c1ccc(C(CCNc2nc(-c3ccc4[nH]ccc4c3)nc3ccccc23)c2ccccc2)cc1", "norepinephrine transporter (NET) (Rattus norvegicus)", "nM", 346]
]}

----------
In this section, each of the compounds is paired with its reported IC50.
- TARGET UNDER TEST: dopamine transporter (DAT) (Rattus norvegicus, UniProt P23977)
- Sequence (P23977 whole entry): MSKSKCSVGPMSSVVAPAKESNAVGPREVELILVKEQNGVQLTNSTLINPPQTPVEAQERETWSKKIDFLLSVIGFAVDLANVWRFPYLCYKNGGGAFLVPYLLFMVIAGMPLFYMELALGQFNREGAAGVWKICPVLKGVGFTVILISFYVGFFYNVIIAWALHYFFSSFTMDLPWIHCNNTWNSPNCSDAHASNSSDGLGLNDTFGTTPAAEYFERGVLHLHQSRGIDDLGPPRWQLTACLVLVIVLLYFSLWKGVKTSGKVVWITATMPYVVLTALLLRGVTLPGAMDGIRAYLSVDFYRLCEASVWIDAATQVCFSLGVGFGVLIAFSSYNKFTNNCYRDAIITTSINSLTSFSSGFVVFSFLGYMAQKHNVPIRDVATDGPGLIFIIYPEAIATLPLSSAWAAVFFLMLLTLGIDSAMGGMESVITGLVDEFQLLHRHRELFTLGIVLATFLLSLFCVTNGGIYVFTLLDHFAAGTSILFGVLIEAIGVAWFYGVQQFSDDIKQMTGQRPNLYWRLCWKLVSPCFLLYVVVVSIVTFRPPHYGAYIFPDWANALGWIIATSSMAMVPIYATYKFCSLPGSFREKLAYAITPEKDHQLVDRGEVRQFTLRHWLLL
- ASSAY METHOD TEXT: Dopamine reuptake ([^3H]dopamine uptake) inhibition in rat brain synaptosomes
- TEST PARAMETERS: DA Uptake EC50 (nM ± SD), rat caudate synaptosomes; 5 nM [^3H]dopamine; 15 min, 25° C.; three experiments pooled

{"columns": ["COMPOUND", "TARGET UNDER TEST", "UNIT LABEL", "MODIFIER SIGN", "IC50"],
 "data": [
  ["CCN(CC)C(=O)[C@]1(c2ccccc2)C[C@@H]1CNc1nc(-c2cn3ccnc3cc2C)nc2ccccc12", "dopamine transporter (DAT) (Rattus norvegicus, UniProt P23977)", "nM", "=", 16],
  ["c1ccc(OC(CNc2nc(-c3ccc4nccn4c3)nc3ccccc23)c2ccccc2)cc1 (stereo not drawn)", "dopamine transporter (DAT) (Rattus norvegicus, UniProt P23977)", "nM", "=", 106],
  ["c1ccc(C(CNc2nc(-c3cccn4ccnc34)nc3ccccc23)c2ccccc2)cc1", "dopamine transporter (DAT) (Rattus norvegicus, UniProt P23977)", "nM", "=", 92],
  ["Cc1cc2nccn2cc1-c1nc(NCC(c2cccnc2)c2ccc[nH]2)c2ccccc2n1 (stereo not drawn)", "dopamine transporter (DAT) (Rattus norvegicus, UniProt P23977)", "nM", "=", 14],
  ["c1ccc(C(CNc2nc(-c3ccc4nccn4c3)nc3ccccc23)N2CCCCC2)cc1 (stereo not drawn)", "dopamine transporter (DAT) (Rattus norvegicus, UniProt P23977)", "nM", "=", 117],
  ["c1ccc(C(CNc2nc(-c3ccc4[nH]cnc4c3)nc3ccccc23)c2ccccc2)cc1", "dopamine transporter (DAT) (Rattus norvegicus, UniProt P23977)", "nM", ">", 5000],
  ["c1ccc(C(CNc2nc(-c3cccs3)nc3ccccc23)c2ccccc2)cc1", "dopamine transporter (DAT) (Rattus norvegicus, UniProt P23977)", "nM", "=", 575],
  ["c1ccc(C(CNc2nc(-c3cnc4nccn4c3)nc3ccccc23)N2CCOCC2)cc1 (stereo not drawn)", "dopamine transporter (DAT) (Rattus norvegicus, UniProt P23977)", "nM", "=", 55],
  ["Cn1ccc2cc(-c3nc(NCC(c4ccccc4)c4ccccc4)c4ccccc4n3)ccc21", "dopamine transporter (DAT) (Rattus norvegicus, UniProt P23977)", "nM", "=", 28],
  ["c1ccc(C(CNc2nc(-c3ccc4nccn4c3)nc3ccccc23)n2ccnc2)cc1 (stereo not drawn)", "dopamine transporter (DAT) (Rattus norvegicus, UniProt P23977)", "nM", "=", 83],
  ["c1ccc2c(NCC(c3ccncc3)c3ccncc3)nc(-c3ccc4nccn4c3)nc2c1", "dopamine transporter (DAT) (Rattus norvegicus, UniProt P23977)", "nM", "=", 66],
  ["Cc1cc2nccn2cc1-c1nc(NC(CCc2ccccc2)c2ccccc2)c2ccccc2n1 (stereo not drawn)", "dopamine transporter (DAT) (Rattus norvegicus, UniProt P23977)", "nM", "=", 9.4],
  ["c1cncc(C(CNc2nc(-c3ccc4nccn4c3)nc3ccccc23)c2ccc[nH]2)c1 (stereo not drawn)", "dopamine transporter (DAT) (Rattus norvegicus, UniProt P23977)", "nM", "=", 175],
  ["c1ccc(CCC(Nc2nc(-c3ccc4nccn4c3)nc3ccccc23)c2ccccc2)cc1 (stereo not drawn)", "dopamine transporter (DAT) (Rattus norvegicus, UniProt P23977)", "nM", "=", 42],
  ["c1ccc(C(CNc2nc(-c3cnc4ccnn4c3)nc3ccccc23)c2ccccc2)cc1", "dopamine transporter (DAT) (Rattus norvegicus, UniProt P23977)", "nM", "=", 9.1],
  ["Cc1cc2nccn2cc1-c1nc(NCC(c2ccccc2)C2CCCC2)c2ccccc2n1 (stereo not drawn)", "dopamine transporter (DAT) (Rattus norvegicus, UniProt P23977)", "nM", "=", 1.6],
  ["c1ccc(C(CNc2nc(-c3ccc4nccn4c3)nc3ccccc23)c2ccccn2)cc1 (stereo not drawn)", "dopamine transporter (DAT) (Rattus norvegicus, UniProt P23977)", "nM", "=", 36],
  ["Cc1cc2nccn2cc1-c1nc(NCC(c2ccncc2)c2ccc[nH]2)c2ccccc2n1 (stereo not drawn)", "dopamine transporter (DAT) (Rattus norvegicus, UniProt P23977)", "nM", "=", 11],
  ["O=C1Cc2cc(-c3nc(NCC(c4ccccc4)c4ccccc4)c4ccccc4n3)ccc2N1", "dopamine transporter (DAT) (Rattus norvegicus, UniProt P23977)", "nM", "=", 30],
  ["CCC(CNc1nc(-c2cn3ccnc3cc2C)nc2ccccc12)c1ccccc1 (stereo not drawn)", "dopamine transporter (DAT) (Rattus norvegicus, UniProt P23977)", "nM", "=", 1.4],
  ["Nc1ncc(-c2nc(NCC(c3ccccc3)c3ccncc3)c3ccccc3n2)cn1 (stereo not drawn)", "dopamine transporter (DAT) (Rattus norvegicus, UniProt P23977)", "nM", "=", 197],
  ["Cc1cc2nccn2cc1-c1nc(NCCc2ccncc2)c2ccccc2n1", "dopamine transporter (DAT) (Rattus norvegicus, UniProt P23977)", "nM", "=", 85],
  ["c1ccc(CC(CNc2nc(-c3ccc4nccn4c3)nc3ccccc23)c2ccccc2)cc1 (stereo not drawn)", "dopamine transporter (DAT) (Rattus norvegicus, UniProt P23977)", "nM", "=", 34],
  ["Cc1cc2nccn2cc1-c1nc(NCC(CN(C)C)c2ccccc2)c2ccccc2n1 (stereo not drawn)", "dopamine transporter (DAT) (Rattus norvegicus, UniProt P23977)", "nM", "=", 10]
]}
